Assay: chemical genetic growth profiling, strain panel (AID 1159580);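 further: tested at 20 µM; growth read once vehicle control cultures reached saturation at 30 °C; 1 = growth at the plate median or of vehicle wells; lower values mean less growth of the strain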
Settings: S. cerevisiae deletion strains, growth OD, locus YJL166W, strain qcr8, stronger effect = lower value
Among all 5,500 compounds or so, about 2,000 (36%) were called active. Roughly 18% stayed inconclusive and do not appear here. The list shows a part of the results.
Doc: threshold 1 (exclusive). Items with normalized growth beneath it return T; others return F.

{"compound": "Clc1ccc(C(Cn2ccnc2)OCc2ccsc2Cl)c(Cl)c1 (stereo not given)", "assigned.label": "T"}
{"compound": "O=NN(CCCl)C(=O)NCCCl", "assigned.label": "T"}
{"compound": "NC(N)=NCCN1CCCCCCC1", "assigned.label": "F"}
{"compound": "O=c1[nH]c(=O)n(C2C[C@H](O)[C@@H](CO)O2)cc1C(F)(F)F (stereo not given in full)", "assigned.label": "T"}
{"compound": "CC1CCC(NC(=O)N(CCCl)N=O)CC1 (stereo not given)", "assigned.label": "T"}
{"compound": "CC(=O)Oc1ccc2c(c1)CCC1C2CC[C@]2(C)C(=O)CCC12 (stereo not given in full)", "assigned.label": "T"}

----------
Assay: chemical genetic growth profiling, strain panel (AID 1159580);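 further: tested at 20 µM; growth read once vehicle control cultures reached saturation at 30 °C; 1 = growth at the plate median or of vehicle wells; lower values mean less growth of the strain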
Settings: S. cerevisiae deletion strains, growth OD, locus YPL055C, strain LGE1, stronger effect = lower value
Hit rate of the full screen: of about 5,500 compounds, about 2,000 (36%) were called active. Roughly 18% stayed inconclusive and do not appear here. This is one part of the list.
# normalized growth listing for each entry below

{"compound": "O=C(O)C(O)C(O)C(=O)O (stereo not given)", "normalized growth": 0.965}
{"compound": "CC(C)c1nc(N(C)S(C)(=O)=O)nc(-c2ccc(F)cc2)c1/C=C/[C@@H](O)C[C@@H](O)CC(=O)O", "normalized growth": 0.998}
{"compound": "NC(C(=O)O)C(O)C(=O)O (stereo not given)", "normalized growth": 1.03}
{"compound": "CC(=O)OC1CC(O)C(C)(C)C2CC(=O)C3(C)C(CCC4(C)C(c5ccoc5)OC(=O)C5OC543)C12C (stereo not given)", "normalized growth": 0.999}
{"compound": "N[C@@H](C(=O)O)[C@@H](O)[C@H](O)[C@H](O)CO", "normalized growth": 1.02}

----------
Assay: chemical genetic growth profiling, strain panel (AID 1159580);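 further: tested at 20 µM; growth read once vehicle control cultures reached saturation at 30 °C; 1 = growth at the plate median or of vehicle wells; lower values mean less growth of the strain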
Conditions: S. cerevisiae deletion strains, growth OD, locus YPL204W, strain HRR25, stronger effect = lower value
Out of some 5,500 compounds screened, about 2,000 (36%) were called active. Another 18% or so got no clear call; they are omitted. The list shows a part of the results.
Labelling: normalized growth reported below 0.9 becomes t; at or above becomes f.

{"smiles.representation": "CC1=CC(=O)N(c2ccc(OC(F)(F)F)cc2)C1=O", "assigned.label": "t"}
{"smiles.representation": "N/C(=N/O)c1ccc(Oc2ccc(C3SCCS3)cc2)c([N+](=O)[O-])c1", "assigned.label": "f"}
{"smiles.representation": "Cc1cccc(N=NC(C(=O)C(F)(F)F)=C(O)c2cccs2)c1", "assigned.label": "f"}
{"smiles.representation": "C[C@@H](Nc1ncnc2sc3c(c12)CCCC3)c1ccccc1", "assigned.label": "f"}
{"smiles.representation": "Nc1ccccc1C(=O)Nc1cc(C(F)(F)F)cc(C(F)(F)F)c1", "assigned.label": "f"}
{"smiles.representation": "CC1=CC(=O)N(c2ccc(F)c(Cl)c2)C1=O", "assigned.label": "t"}
{"smiles.representation": "Clc1ccc(CSc2nccn2-c2cc(Cl)ccc2Cl)cc1", "assigned.label": "t"}
{"smiles.representation": "CNC(=O)Sc1c(-c2ccc(Cl)cc2)nn(C(=O)NC)c1SC", "assigned.label": "t"}
{"smiles.representation": "FC(F)(F)c1cc(NC(=S)SCCSC(=S)Nc2cc(C(F)(F)F)cc(C(F)(F)F)c2)cc(C(F)(F)F)c1", "assigned.label": "f"}
